Tested on: MDA-MB-231 hormone-independent breast cancer
Assay: Cytotoxicity assay
Type: cell-based
Details: Homo sapiens, MDA-MB-231, 48 h, read-out: Cytotoxic activity IC50, MDA-MB-231
Measurement Label: IC50 (µM)
Numeric only. Scale: µM

[
  {
    "Compound": "COc1ccc(/C=C/C(=O)c2ccc(NC3=C(Cl)C(=O)c4ccccc4C3=O)cc2)cc1O [Compound 9]",
    "Measurement Label": "IC50",
    "Readout Number": 6.81
  }
]

IC50 for O=C(/C=C/c1ccc(O)cc1)c1ccc(NC2=C(Cl)C(=O)c3ccccc3C2=O)cc1 [Compound 10] ? 1.37

For COc1cc(/C=C/C(=O)c2cccc(NC3=C(Cl)C(=O)c4ccccc4C3=O)c2)cc(OC)c1OC [Compound 3] , what is its reported IC50? 1.05

Which IC50 is listed for COc1ccc(/C=C/C(=O)c2ccc(NC3=C(Cl)C(=O)c4ccccc4C3=O)cc2)cc1OC [Compound 7] ? 1.16

Using the record for COc1cc(/C=C/C(=O)c2cccc(NC3=C(Cl)C(=O)c4ccccc4C3=O)c2)cc(OC)c1O [Compound 4] , report its IC50. 1.43

Tell me the measured IC50 of COc1cc(/C=C/C(=O)c2ccc(NC3=C(Cl)C(=O)c4ccccc4C3=O)cc2)cc(OC)c1OC [Compound 8] , please. 1.09
